# Study System: T1, REF6 V1340A (Arabidopsis thaliana, UniProt Q9STM3 1223-1360, V1340A)
# T1 sequence: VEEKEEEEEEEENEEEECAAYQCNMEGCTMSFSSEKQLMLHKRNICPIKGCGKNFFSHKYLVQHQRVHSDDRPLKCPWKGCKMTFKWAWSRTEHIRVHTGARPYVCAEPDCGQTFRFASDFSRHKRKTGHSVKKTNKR
# Test Name: MST; MST: 20 mM HEPES pH 7.3, 150 mM NaCl, 0.2 mM TCEP, 0.5% CA-630, 25 C; EMSA: 30 uM protein, 10 uM dsDNA, 20 mM Tris pH 8.0, 100 mM NaCl, 2.5 mM MgCl2, 0.1% CA-630, 10% glycerol, 1 uM ZnSO4, 1 mM DTT, 4 C
# Test Context: protein: recombinant; tags: His6-MBP or GST, TEV-cleavable; label: FAM in MST; none in crystal and EMSA; 5' overhang 1 nt on both strands, 15 bp
pKd: −log10 of the molar value.

{"Binder": "NAC004 m5 (dsDNA) DNA 1: CTTTCTCTGTTTTGTC DNA 2: GGACAAAACAGAGAAA", "pKd": 6.30}
